Recorded koff for the following binders
# experimental_target: T1, Extracellular domain (ECD) of the canine IL-4 receptor alpha-AviTag-His Tag (canine)
# T1 construct: expressed in CHO cells; also called canine IL-4RA; canine IL4Ra
# T1 chain: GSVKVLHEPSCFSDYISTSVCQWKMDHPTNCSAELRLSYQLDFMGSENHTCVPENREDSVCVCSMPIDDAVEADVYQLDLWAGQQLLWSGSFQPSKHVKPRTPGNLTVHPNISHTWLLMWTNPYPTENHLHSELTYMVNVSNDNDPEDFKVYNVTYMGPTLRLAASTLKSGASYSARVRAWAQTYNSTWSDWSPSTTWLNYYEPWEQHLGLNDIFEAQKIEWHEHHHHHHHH
# test_details: SPR, IgG captured via anti-dog Fc
measure_name: koff (s⁻¹)

>>> recorded_result("21188-H + 21188-L (antibody, V domains shown) VH: EVQLVESGGDLVKPGGSLRLSCVASGFTFRDYAMTWVRQAPGKGLQWLSLISGSGGKTYYADAVKGRFTISRDNAKNTLYLQMNSLRAEDTAVYYCAVDRLTKTIRPQYYGLWHWGQGTLVTVSS VL: DIVMTQTPLSLSVSPGETASISCRSSQSLTYSIGYNYLDWYMQKPGQSPQGLIYLGSKRASGVSDRFSGSGSGADFTLKISRVEADDAGVYYCMQGLQSPLGFGQGTKLEIKR")
"9.85e-05"
>>> recorded_result("Gfmix_PTH-H + 21188-L (antibody, V domains shown) VH: EVQLVESGGDLVKPGGSLRLSCVASGFPFRDYAMTWVRQAPGKGLQWLSLISGSGGKTYYADAVKGRFTISRDNAKNTLYLQMNSLRAEDTAVYYCAVDRLTKTIRPQYYGLWHWGQGTLVTVSS VL: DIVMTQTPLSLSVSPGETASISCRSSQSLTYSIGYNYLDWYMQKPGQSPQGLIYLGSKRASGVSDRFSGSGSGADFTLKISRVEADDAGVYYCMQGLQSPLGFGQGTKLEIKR")
"9.71e-05"
